# Test system: Escherichia coli
# Format: cell-based
# condition.parameters: strain ATCC 25922 (WT); broth microdilution, MHB, 18-20 h, 37 °C
Where no end group is shown, it is not given here.
With a cut-off of 8 µg/mL, any MIC strictly below it is called Yes; any MIC meeting it or above is called No.

{"sequence.text": "WVNAFVNWPKSF (also: bicyclic or more (positions not given here)) [Compound 5, xenorceptide A5]", "discrete.label": "No"}
{"sequence.text": "WVNAFANWSKSF (also: bicyclic or more (positions not given here)) [Compound 6, xenorceptide A6]", "discrete.label": "No"}
{"sequence.text": "WVNAFANWSKAL (also: bicyclic or more (positions not given here)) [Compound 15, xenorceptide A15]", "discrete.label": "No"}
{"sequence.text": "WVNAFARWDKKF (also: bicyclic or more (positions not given here)) [Compound 7, xenorceptide A7]", "discrete.label": "No"}
{"sequence.text": "WVNAYARWTKRF (also: bicyclic or more (positions not given here)) [Compound 12, xenorceptide A12]", "discrete.label": "Yes"}
{"sequence.text": "WINAFGNWTKSF (also: bicyclic or more (positions not given here)) [Compound 16, xenorceptide A16]", "discrete.label": "No"}
{"sequence.text": "WVNAFAKWTKRI (also: bicyclic or more (positions not given here)) [Compound 11, xenorceptide A11]", "discrete.label": "Yes"}
{"sequence.text": "WVNAFGNWSKSL (also: bicyclic or more (positions not given here)) [Compound 14, xenorceptide A14]", "discrete.label": "No"}
{"sequence.text": "WVNAFANWTKRF (also: bicyclic or more (positions not given here)) [Compound 8, xenorceptide A8]", "discrete.label": "Yes"}

* * *

# assay.explanation: Single-dose pharmacokinetic study
# Type: in vivo
# condition.parameters: mouse, blood, ip, 50 mg/kg
readout.label: Tmax (h)

{"molecule": "CC(C)[C@@H]1NC(=O)[C@@H](N)Cc2c[nH]c3cc(ccc23)C(C(N)=O)[C@@H](C(=O)N[C@@H](C)C(=O)N[C@H]2Cc3cccc(c3)C(CCNC(=N)N)[C@@H](C(=O)N[C@H]3Cc4c[nH]c5cc(ccc45)C(CCCN)[C@@H](C(=O)N[C@@H](CO)C(=O)N[C@@H](Cc4ccccc4)C(=O)O)NC(=O)[C@H](CO)NC3=O)NC(=O)[C@H](C)NC2=O)NC1=O (stereo partly shown) [Compound 2, xenorceptide A2]", "result.value": 2}

* * *

# assay.explanation: Single-dose pharmacokinetic study
# Format: in vivo
# condition.parameters: mouse, blood, ip, 50 mg/kg; SD

{"compound": "CC(C)[C@@H]1NC(=O)[C@@H](N)Cc2c[nH]c3cc(ccc23)C(C(N)=O)[C@@H](C(=O)N[C@@H](C)C(=O)N[C@H]2Cc3cccc(c3)C(CCNC(=N)N)[C@@H](C(=O)N[C@H]3Cc4c[nH]c5cc(ccc45)C(CCCN)[C@@H](C(=O)N[C@@H](CO)C(=O)N[C@@H](Cc4ccccc4)C(=O)O)NC(=O)[C@H](CO)NC3=O)NC(=O)[C@H](C)NC2=O)NC1=O (stereo partly shown) [Compound 2, xenorceptide A2]", "half-life / h": 2.4}

* * *

# assay.explanation: Single-dose pharmacokinetic study
# Format: in vivo
# condition.parameters: mouse, blood, ip, 50 mg/kg; SD

{"molecule": "CC(C)[C@@H]1NC(=O)[C@@H](N)Cc2c[nH]c3cc(ccc23)C(C(N)=O)[C@@H](C(=O)N[C@@H](C)C(=O)N[C@H]2Cc3cccc(c3)C(CCNC(=N)N)[C@@H](C(=O)N[C@H]3Cc4c[nH]c5cc(ccc45)C(CCCN)[C@@H](C(=O)N[C@@H](CO)C(=O)N[C@@H](Cc4ccccc4)C(=O)O)NC(=O)[C@H](CO)NC3=O)NC(=O)[C@H](C)NC2=O)NC1=O (stereo partly shown) [Compound 2, xenorceptide A2]", "Cmax / µg/mL": 60.7}
